# cytotoxicity at 10 µM annotations
test_details: Toxicity liver stage against HepG2, at 10uM
Assay type: cell-based
Parameters: test concentration 10 uM, cell line HepG2-A16-CD81EGFP
condition_summary: human, HepG2-A16-CD81EGFP cells; read-out: INHIBITION
Report as a plain number; the unit % is understood.

Some molecules with recorded cytotoxicity at 10 µM:
# molecule, units_label, cytotoxicity at 10 µM
data = [
    ("O=C(NCCCNC(=O)C1CCC1)NCCn1cccc1", "%", 0.215),
    ("Cc1[nH]c(=O)[nH]c(=O)c1CC(=O)N1CCC(Oc2ccc(F)cc2)CC1", "%", 4.42),
    ("CCn1ncc2c1C(COCC1CC1)N(Cc1cnn(C)c1)CC2 (stereo not given)", "%", 8.98),
    ("CCS(=O)(=O)N1CCC2(CCN(C(=O)c3cccs3)CC2)CC1", "%", -99.9),
]

Query block: Could you share which cytotoxicity at 10 µM value was measured for CC[C@@H](CO)NC(=O)c1coc(COc2ccc3sc(C)nc3c2)n1 ?
Result block: 4.67

====

# cytotoxicity at 10 µM annotations
test_details: Toxicity liver stage against HepG2, at 10uM
Format: cell-based
Parameters: test concentration 10 uM, cell line HepG2-A16-CD81EGFP
condition_summary: human, HepG2-A16-CD81EGFP cells; read-out: INHIBITION
Report as a plain number; the unit % is understood.

Some compounds with recorded cytotoxicity at 10 µM:
# compound, units_label, cytotoxicity at 10 µM
records = [
    ("CC(=O)NCc1nnn2c1CN(c1ncccn1)CCC2", "%", -107),
    ("Cc1nn(C)c(C)c1C1CCCN1Cc1nc(-c2cccs2)no1 (stereo unspecified)", "%", -9.43),
    ("CC(C)n1nc2c(cc1=O)CN(CCCN1CCCC1=O)CC2", "%", -8.08),
    ("Cc1cc(CN2CCCC(CNC(=O)Cn3cccn3)C2)oc1C (stereo unspecified)", "%", 6.2),
    ("Cc1ccc(C(=O)N2CCN3C[C@H](Oc4cncnc4)C[C@H]3C2)cn1", "%", 5.01),
]

Query block: Could you share which cytotoxicity at 10 µM value was measured for CCc1[nH]ncc1C(=O)N1CCCC(n2nc(C)cc2C)C1 (stereo unspecified) ?
Result block: -15.6

Query block: Could you share which cytotoxicity at 10 µM value was measured for O=C1CCC2(CCCN(CCc3ccccc3)C2)N1Cc1cccnc1 (stereo unspecified) ?
Result block: 4.05

Query block: Could you share which cytotoxicity at 10 µM value was measured for COc1ccc(NC(=O)NCc2cccc(N(C)C)n2)c(Cl)c1 ?
Result block: 21.8

Query block: Could you share which cytotoxicity at 10 µM value was measured for Cc1nn(C)c(C)c1CC(=O)N1CCCC(n2ccnc2)C1 (stereo unspecified) ?
Result block: -11.5

Query block: Could you share which cytotoxicity at 10 µM value was measured for c1c[nH]c2nc(C3CCNC3)nc-2c1 (stereo unspecified) ?
Result block: 10.3

Query block: Could you share which cytotoxicity at 10 µM value was measured for CC(C)N1CCC(c2ccnc3c(C(=O)N4CCCC4)ncn23)CC1 ?
Result block: -5.49

Query block: Could you share which cytotoxicity at 10 µM value was measured for COc1ccc(NC(=O)c2cccc(CN3CCCC3C)c2)cc1OC (stereo unspecified) ?
Result block: 0.636

Query block: Could you share which cytotoxicity at 10 µM value was measured for CCn1nc(C(=O)N2CCCC2c2noc(C3CC3)n2)ccc1=O (stereo unspecified) ?
Result block: 5.65

Query block: Could you share which cytotoxicity at 10 µM value was measured for CC(=O)NCC(=O)N1CCn2cc(CN(C)Cc3ccco3)nc2C1 ?
Result block: 4.81
